Each recorded value in this set is attributed to ChEMBL document CHEMBL1158663.

Provide the reported inhibition of each item.
species on record: Sus scrofa; assay: Inhibition of 5-LO from pig leukocytes at 5 uM
Numbers only, in %.

SMILES RECORD: CCCC/C=C/C#CC#CCCCCC(=O)O
ASSAY READOUT: inhibition
MEASUREMENT UNIT: %
MEAS VALUE: 14

// input: 4 compounds below; output: inhibition for each
1. CCCCC/C=C\CC#CC#CCCCCCC(=O)O
2. CCCCCC#CC#CC#CCCCCCCC(=O)O
3. CCCCC#CC#CC#CCCCCC(=O)O
4. CCCC/C=C\C#CC#CCCCCCC(=O)O

Result:
1: 55; 2: 21; 3: 18; 4: 45
